Reported IC50 values for a set of compounds
# system_under_test: recombinant human NF-kappaB-inducing kinase (NIK/MAP3K14) (Homo sapiens, UniProt Q99558)
# Sequence (Q99558 whole entry): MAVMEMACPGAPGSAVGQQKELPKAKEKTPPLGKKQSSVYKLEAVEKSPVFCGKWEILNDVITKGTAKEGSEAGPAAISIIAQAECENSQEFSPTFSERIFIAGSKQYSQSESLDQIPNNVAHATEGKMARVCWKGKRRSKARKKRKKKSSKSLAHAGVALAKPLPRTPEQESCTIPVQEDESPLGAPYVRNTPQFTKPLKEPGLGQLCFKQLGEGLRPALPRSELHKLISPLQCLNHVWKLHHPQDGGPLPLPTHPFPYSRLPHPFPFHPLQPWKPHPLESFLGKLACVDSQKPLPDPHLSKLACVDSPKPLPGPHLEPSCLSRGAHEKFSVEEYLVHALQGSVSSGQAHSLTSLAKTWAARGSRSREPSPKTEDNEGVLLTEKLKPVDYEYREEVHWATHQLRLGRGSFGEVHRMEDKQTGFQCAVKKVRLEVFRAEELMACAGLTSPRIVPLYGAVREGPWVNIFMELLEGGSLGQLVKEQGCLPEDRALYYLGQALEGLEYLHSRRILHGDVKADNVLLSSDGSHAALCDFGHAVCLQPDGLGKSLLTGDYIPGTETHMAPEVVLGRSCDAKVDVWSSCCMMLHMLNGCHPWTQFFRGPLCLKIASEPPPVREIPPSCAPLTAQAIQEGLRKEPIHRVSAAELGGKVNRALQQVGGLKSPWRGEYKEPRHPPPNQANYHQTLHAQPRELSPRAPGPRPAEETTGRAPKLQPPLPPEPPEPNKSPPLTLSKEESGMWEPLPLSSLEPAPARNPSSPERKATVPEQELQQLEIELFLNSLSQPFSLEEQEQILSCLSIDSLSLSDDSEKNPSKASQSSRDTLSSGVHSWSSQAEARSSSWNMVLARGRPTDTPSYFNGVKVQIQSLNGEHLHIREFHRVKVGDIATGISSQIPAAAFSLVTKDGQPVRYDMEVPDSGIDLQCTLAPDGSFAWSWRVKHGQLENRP
# experiment_description: Inhibition of auto-phosphorylation of recombinant human NIK/MAP3K14 activity (AlphaScreen), Biological Assay A
# Type: biochemical
# condition_info: averaged values over all measurements on all batches
# Description: Inhibition of Auto-Phosphorylation of Recombinant Human NF-kappaB-Inducing Kinase (NIK/MAP3K14) Activity (AlphaScreen®) NIK/MAP3K14 auto-phosphorylation activity was measured using the AlphaScreen® (αscreen) format (Perkin Elmer). All compounds tested were dissolved in dimethyl sulfoxide (DMSO) and further dilutions were made in assay buffer. […] Protein A Acceptor and Glutathione-Donor beads were added before reading using an EnVision® Multilabel Plate Reader (Perkin Elmer). […]
Answer in nM, number only, no unit symbol.

Examples with answers:
>  <compound>
C[C@]1(CO)CNc2c(C#N)cc(-c3ccnc(Nc4cc(C#N)ccc4CN4CC(F)(F)C4)n3)cc21 [Compound 227]

>  <system_under_test>
recombinant human NF-kappaB-inducing kinase (NIK/MAP3K14) (Homo sapiens, UniProt Q99558)

>  <unit_string>
nM

>  <IC50>
7.9

$$$$
>  <compound>
Cc1ccc(C#N)cc1Nc1nccc(-c2cc(C#N)c3c(c2)C(C)(CO)CN3)n1 (stereo not shown) [Compound 26]

>  <system_under_test>
recombinant human NF-kappaB-inducing kinase (NIK/MAP3K14) (Homo sapiens, UniProt Q99558)

>  <unit_string>
nM

>  <IC50>
3.7

$$$$
>  <compound>
CC1(CO)CNc2c(C#N)cc(-c3ccnc(Nc4cc(Cl)ccc4C(F)(F)F)n3)cc21 (stereo not shown) [Compound 49]

>  <system_under_test>
recombinant human NF-kappaB-inducing kinase (NIK/MAP3K14) (Homo sapiens, UniProt Q99558)

>  <unit_string>
nM

>  <IC50>
24.6

$$$$

From here, focus on the item given below.
Please report the measured IC50 for CCCCc1ccc(C#N)cc1Nc1nccc(-c2cc(C#N)c3c(c2)[C@@](C)(CO)CN3)n1 [Compound 15]
11

====

# Test system: JJN-3 (NIK translocated) multiple myeloma cells
# experiment_description: Antiproliferative activity on JJN-3 multiple myeloma cells (CellTiter-Glo, 96 hr), Biological Assay C
# Assay type: cell-based, human
# condition_info: Homo sapiens, JJN-3, 96 h, JJN-3 (NIK translocated) cells, averaged values, read-out: JJN-3 Proliferation inhibition (IC50 (nM))
Reported values of IC50 for individual entries
I only need the number, in nM, no unit after it.

>  <molecule>
C[C@]1(CO)CNc2c(C#N)cc(-c3ccnc(Nc4cc(C#N)ccc4OCCO)n3)cc21

>  <IC50 / nM>
87

$$$$
>  <molecule>
CC(C)c1ccc(COc2cccc(Nc3nccc(-c4cc(C#N)c5c(c4)C(C)(CO)CN5)n3)c2)cc1 (stereo not drawn)

>  <IC50 / nM>
4270

$$$$
>  <molecule>
C[C@]1(CO)CNc2c(C#N)cc(-c3ccnc(Nc4cc(C#N)ccc4OCC4CC4)n3)cc21

>  <IC50 / nM>
146

$$$$
>  <molecule>
CNC(=O)c1cc(Nc2nccc(-c3cc(C#N)c4c(c3)[C@@](C)(CO)CN4)n2)c(F)cc1OC1CC1

>  <IC50 / nM>
178

$$$$
>  <molecule>
COC(=O)c1cc(C#N)cc(Nc2nccc(-c3cc(C#N)c4c(c3)[C@@](C)(CO)CN4)n2)c1C

>  <IC50 / nM>
41

$$$$
>  <molecule>
CC(C)Oc1ccc(CO)cc1Nc1nccc(-c2cc(C#N)c3c(c2)[C@@](C)(CO)CN3)n1

>  <IC50 / nM>
141

$$$$

Kindly indicate its recorded IC50. Item: C[C@]1(CO)CNc2c(C#N)cc(-c3ccnc(Nc4cc(C#N)ccc4CCCCN)n3)cc21
178

Name the recorded IC50 of the item CCCCc1ccc(C#N)cc1Nc1nccc(-c2cc(C#N)c3c(c2)[C@@](C)(CO)CN3)n1 in your answer.
117

Please look at this molecule and report its IC50: Cc1ccc(C#N)cc1Nc1ncnc(-c2cc(C#N)c3c(c2)[C@@](C)(CO)CN3)n1
1070

Quote IC50 reported for Cc1c(NC(=O)C2CCN(C)CC2)cc(Cl)cc1Nc1nccc(-c2cc(C#N)c3c(c2)[C@@](C)(CO)CN3)n1 please.
16

Return value of IC50 for input Cc1ccc(C#N)cc1Nc1nccc(-c2cc(C#N)c3c(c2)[C@@](C)(COC(=O)[C@H](N)Cc2ccccc2)CN3)n1 , no commentary.
550

Please give measured IC50 of the following entry: CNC(=O)c1ccc(OC(C)C)c(Nc2nccc(-c3cc(C#N)c4c(c3)[C@@](C)(CO)CN4)n2)c1
288

Return the recorded IC50 value; entry: COC(=O)c1cc(Nc2nccc(-c3cc(C#N)c4c(c3)C(C)(CO)CN4)n2)cc(C(F)(F)F)c1 (stereo not drawn)
126

Indicate the recorded IC50 value for this molecule: Cc1ccc(C#N)cc1Nc1nccc(-c2cc(C#N)c3c(c2)[C@@](C)(COC(=O)CN)CN3)n1
545

Quick one: give measured IC50 for CNCCOc1ccc(Cl)cc1Nc1nccc(-c2cc(C#N)c3c(c2)C(C)(C)CN3)n1
676
